B1: SPOPL (parent)
chain: AKREETKAMESQRAYRFVQGKDWG

variants of: B1; assay: protein stability index of a GFP-peptide fusion (GPS, HEK-293T) (PSI 1-6); higher = more stable; conditions: c terminus: a fixed tail appended;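 also: lentivirally expressed fusions sorted by FACS into six bins by GFP to DsRed ratio, PSI derived from sequencing read proportions per bin multiplied by bin number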
Quick list: protein stability index per entry.

Would you please look over these solved cases?
[
  {
    "CHAIN_SEQUENCE": "AKREETKAMQSQRAYRFVQGKDWG [E10Q]",
    "protein stability index": 2.95
  },
  {
    "CHAIN_SEQUENCE": "AKREETKAMESQRAYRFVQGKDWT [G24T]",
    "protein stability index": 2.96
  },
  {
    "CHAIN_SEQUENCE": "AKRTETKAMESQRAYRFVQGKDWG [E4T]",
    "protein stability index": 3
  }
]

Problem: What measured protein stability index goes with AKREETKAMESQRAYRFVQGKDWV [G24V] ?
Result: 2.91
